Data provenance is patent US10689378B2.

System: H3K27 methylation in G401 cell
experimental protocol: ELISA (H3K27 methylation) assay in G401 cells
Format: cell-based, human
experimental context: Homo sapiens, G-401, H3K27 methylation ELISA, read-out: (c) IC50 ELISA Qualified
reported metric: pIC50
Give bare numbers, as −log10 of the molar value.

{"columns": ["smiles code", "measured value"],
 "data": [
  ["COc1cccc(F)c1CNc1ccc(-c2cnc(N3CCOCC3)cc2C)c2nncn12", 7.81],
  ["CCc1ccncc1-c1ccc(NCc2c(F)cccc2OC)n2cnnc12", 7.21],
  ["COc1ncc(-c2ccc(NCc3c(F)cccc3OC)n3cnnc23)c(C)n1", 8.15],
  ["COc1cc(F)cc(F)c1CNc1ccc(-c2ccncc2C)c2nncn12", 7.76],
  ["COc1cccc(F)c1CNc1ccc(-c2ccc(C(=O)N(C)C)cc2F)c2nncn12", 8.19],
  ["COc1ccc(-c2ccc(NCc3c(F)cc(F)cc3OC)n3cnnc23)c(C)n1", 7.39],
  ["COc1cccc(F)c1CNc1ccc(-c2c(C)nn(C(C)C)c2C)c2nncn12", 8.09],
  ["COc1cccc(F)c1CNc1ccc(-c2c[nH]nc2C)c2nncn12", 7.25]
]}

Below are some compounds; for each one, tell me its pIC50.
1. CNC(=O)Cc1cncc(-c2ccc(NCc3c(F)cccc3OC)n3cnnc23)c1
2. COc1cccc(F)c1CNc1ccc(-c2ccc(C#N)cc2C)c2nncn12
3. CCc1cc(S(C)(=O)=O)ccc1-c1ccc(NCc2c(F)cccc2OC)n2cnnc12

1: 7.60; 2: 7.12; 3: 7.52

Below are some compounds; for each one, tell me its pIC50.
1. Cc1cccc(F)c1CNc1ccc(-c2cccnc2C)c2nncn12
2. COc1cccc(F)c1CNc1ccc(-c2cncc(OCCS(C)(=O)=O)c2)c2nncn12

[6.28, 7.02]

Below are some compounds; for each one, tell me its pIC50.
1. COc1cccc(F)c1CNc1ccc(-c2ccc(C)nc2C)c2nncn12
2. COc1cccc(F)c1CNc1ccc(-c2cnc(C#N)cc2C)c2nncn12
3. COc1cccc(F)c1CNc1ccc(-c2ccc(CC#N)nc2C)c2nncn12
4. COc1ccc(F)c(F)c1CNc1ccc(-c2cccnc2)c2nncn12
5. COc1ccc(F)c(F)c1CNc1ccc(-c2cccnc2C)c2nncn12

7.91
8.07
8.17
6.34
6.94

* * *

Tested on: H3K27 methylation in G401 cell
experimental protocol: ELISA (H3K27 methylation) assay in G401 cells
Type: cell-based, human
experimental context: Homo sapiens, G-401, read-out: (c) IC50, ELISA Qualified
Would you mind telling me the reported IC50 of each entry?
Give bare numbers, in nM.

{"columns": ["smiles code", "tested on", "IC50 (nM)"],
 "data": [
  ["COc1ccccc1CNc1ccc(-c2ccc(S(C)(=O)=O)cc2)c2nncn12", "H3K27 methylation in G401 cell", 50.3],
  ["COc1ccccc1CNc1ccc(-c2ccc(CN3CCOCC3)cc2)c2nncn12", "H3K27 methylation in G401 cell", 113],
  ["COc1ccccc1CNc1ccc(-c2c(C)nn(C)c2C)c2nncn12", "H3K27 methylation in G401 cell", 74.2],
  ["COc1ccc(F)c(CNc2ccc(-c3ccc(S(C)(=O)=O)nc3)c3nncn23)c1", "H3K27 methylation in G401 cell", 138]
]}

Proceed to the following item.
Request - read-out IC50 | tested on H3K27 methylation in G401 cell | molecule `COc1ccc(F)cc1CNc1ccc(-c2cccnc2)c2nncn12` 1270

* * *

tested on: EED (1-441)-His protein (Homo sapiens, UniProt O75530)
Construct: 30 nM EED (1-441)-His protein
Sequence (O75530 whole entry): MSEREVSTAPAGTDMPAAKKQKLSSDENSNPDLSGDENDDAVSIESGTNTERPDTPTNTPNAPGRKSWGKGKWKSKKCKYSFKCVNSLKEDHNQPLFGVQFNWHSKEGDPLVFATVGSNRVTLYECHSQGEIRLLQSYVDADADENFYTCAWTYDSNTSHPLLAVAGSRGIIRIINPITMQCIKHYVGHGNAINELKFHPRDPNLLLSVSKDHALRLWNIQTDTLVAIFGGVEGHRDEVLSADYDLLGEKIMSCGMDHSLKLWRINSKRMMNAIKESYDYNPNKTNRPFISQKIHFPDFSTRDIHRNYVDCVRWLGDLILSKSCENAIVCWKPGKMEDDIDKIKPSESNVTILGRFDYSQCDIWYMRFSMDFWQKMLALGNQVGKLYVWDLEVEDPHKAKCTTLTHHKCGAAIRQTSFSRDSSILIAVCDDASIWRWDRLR
experimental protocol: EED-H3K27Me3 peptide competition binding assay by AlphaScreen
experimental context: EED-H3K27Me3 peptide competition, AlphaScreen; read-out: (a) IC50 EED Alphascreen binding Qualified
Would you mind telling me the reported pIC50 of each entry?
One number for each entry, as −log10 of the molar value.

Solved entries (count: 2):
{"columns": ["compound", "reported metric", "measured value"],
 "data": [
  ["CCc1ccncc1-c1ccc(NCc2c(F)cccc2OC)n2cnnc12", "pIC50", 7.46],
  ["CCc1cc(S(C)(=O)=O)ccc1-c1ccc(NCc2c(F)cccc2OC)n2cnnc12", "pIC50", 7.48]
]}

Below are some compounds; for each one, tell me its pIC50.
1. COc1cccc(F)c1CNc1ccc(-c2cnccc2Cl)c2nncn12
2. COc1ncc(-c2ccc(NCc3c(F)cc(F)cc3OC)n3cnnc23)c(C)n1
3. COc1cc(F)cc(F)c1CNc1ccc(-c2ccncc2C)c2nncn12
4. COc1cccc(F)c1CNc1ccc(-c2cc(Cl)cnc2C)c2nncn12
5. COc1cccc(F)c1CNc1ccc(-c2cnn(C)c2CO)c2nncn12
6. COc1cc(F)cc(F)c1CNc1ccc(-c2cncnc2C)c2nncn12
7. COc1cc(F)cc(F)c1CNc1ccc(-c2c(C)noc2C)c2nncn12

7.08
7.61
7.37
7.58
7.89
7.56
7.34

* * *

Would you mind telling me the reported IC50 of each entry?
Test system: H3K27 methylation in G401 cell
experimental protocol: ELISA (H3K27 methylation) assay in G401 cells
Type: cell-based, human
experimental context: Homo sapiens, G-401, read-out: (c) IC50, ELISA Qualified
Protocol: Compounds of the present invention were assessed for their ability to inhibit PRC2 activity in a pentameric complex of EZH2, SUZ12, EED, Rbap48 and AEBP in biochemical assays. The ability of compounds of the present invention to inhibit cellular activity of PRC2 was assessed by analysing histone H3 lysine 27 methylation in human cell lines. […]
State the value, then name its unit.

{"columns": ["molecule", "IC50"],
 "data": [
  ["COc1ccccc1CNc1ccc(-c2ccc(S(N)(=O)=O)cc2)c2nncn12 [Example 73]", "397 nM"],
  ["COc1ccccc1CNc1ccc(-c2ccc(N3CCN(C(C)C)CC3)cc2)c2nncn12 [Example 77]", "21.7 nM"],
  ["COc1cccc(F)c1CNc1ccc(-c2c(C)noc2C)c2nncn12 [Example 139]", "11.7 nM"],
  ["COc1ccccc1CNc1ccc(-c2ccc(CN3CC(F)(F)C3)cc2)c2nncn12 [Example 54]", "56.6 nM"]
]}

Proceed to the following item.
What measured IC50 goes with Cc1ccccc1CNc1ccc(-c2ccc(CN(C)C)cc2)c2nncn12 [Example 31] ? 508 nM

* * *

tested on: wild type PRC2 (wtPRC2) complex (Homo sapiens)
Sequence (O75530 whole entry): as above
Sequence (Q15910 whole entry partner): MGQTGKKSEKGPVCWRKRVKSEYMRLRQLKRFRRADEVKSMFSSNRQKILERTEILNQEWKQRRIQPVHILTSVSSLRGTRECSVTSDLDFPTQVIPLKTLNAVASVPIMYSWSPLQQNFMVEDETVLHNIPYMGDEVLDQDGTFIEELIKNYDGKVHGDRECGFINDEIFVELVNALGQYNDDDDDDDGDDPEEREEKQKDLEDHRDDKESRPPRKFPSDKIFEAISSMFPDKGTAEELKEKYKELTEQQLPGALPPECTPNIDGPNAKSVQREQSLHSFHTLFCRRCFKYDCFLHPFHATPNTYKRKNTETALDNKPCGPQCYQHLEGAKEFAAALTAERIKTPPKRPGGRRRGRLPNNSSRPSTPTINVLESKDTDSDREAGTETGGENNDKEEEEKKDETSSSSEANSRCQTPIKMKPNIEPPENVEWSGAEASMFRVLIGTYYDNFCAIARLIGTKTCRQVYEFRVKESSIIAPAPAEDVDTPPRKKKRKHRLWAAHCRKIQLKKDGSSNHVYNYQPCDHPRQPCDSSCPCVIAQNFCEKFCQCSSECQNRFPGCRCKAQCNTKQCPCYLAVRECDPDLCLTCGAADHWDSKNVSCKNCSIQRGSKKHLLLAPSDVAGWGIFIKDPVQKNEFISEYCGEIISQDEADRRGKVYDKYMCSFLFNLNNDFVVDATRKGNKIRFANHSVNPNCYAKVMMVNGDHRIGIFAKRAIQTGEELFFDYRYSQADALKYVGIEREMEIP
Sequence (Q15022 whole entry partner): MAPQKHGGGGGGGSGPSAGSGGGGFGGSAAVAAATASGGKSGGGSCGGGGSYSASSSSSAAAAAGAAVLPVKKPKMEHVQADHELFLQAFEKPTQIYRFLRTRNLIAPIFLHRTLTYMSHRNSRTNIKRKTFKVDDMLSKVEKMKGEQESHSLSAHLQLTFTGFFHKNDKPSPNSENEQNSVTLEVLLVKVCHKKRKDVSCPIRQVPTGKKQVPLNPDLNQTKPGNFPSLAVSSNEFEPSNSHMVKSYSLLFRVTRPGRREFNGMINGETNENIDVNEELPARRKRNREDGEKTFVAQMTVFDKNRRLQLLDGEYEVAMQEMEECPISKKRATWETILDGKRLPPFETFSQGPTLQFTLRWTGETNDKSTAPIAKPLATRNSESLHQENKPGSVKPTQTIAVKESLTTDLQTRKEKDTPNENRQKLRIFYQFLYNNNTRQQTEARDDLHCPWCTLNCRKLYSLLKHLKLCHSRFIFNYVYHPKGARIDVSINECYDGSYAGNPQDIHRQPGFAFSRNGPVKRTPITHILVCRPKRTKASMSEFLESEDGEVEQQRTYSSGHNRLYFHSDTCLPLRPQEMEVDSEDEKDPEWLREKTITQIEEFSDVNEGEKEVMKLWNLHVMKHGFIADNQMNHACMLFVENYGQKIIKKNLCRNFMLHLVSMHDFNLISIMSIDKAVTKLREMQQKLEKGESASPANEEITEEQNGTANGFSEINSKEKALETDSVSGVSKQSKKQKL
Sequence (Q09028 whole entry partner): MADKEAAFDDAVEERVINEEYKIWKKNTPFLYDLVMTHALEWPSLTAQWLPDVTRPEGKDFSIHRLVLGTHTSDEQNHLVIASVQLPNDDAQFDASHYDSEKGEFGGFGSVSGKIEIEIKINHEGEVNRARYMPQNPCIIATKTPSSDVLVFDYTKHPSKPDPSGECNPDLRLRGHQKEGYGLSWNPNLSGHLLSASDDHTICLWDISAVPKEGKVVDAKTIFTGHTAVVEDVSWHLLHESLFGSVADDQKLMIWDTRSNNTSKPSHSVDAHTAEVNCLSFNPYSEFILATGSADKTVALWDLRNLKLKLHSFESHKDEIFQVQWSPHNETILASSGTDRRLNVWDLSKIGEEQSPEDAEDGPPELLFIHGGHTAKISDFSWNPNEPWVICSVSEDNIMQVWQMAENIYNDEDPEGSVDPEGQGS
Sequence (Q6ZN18 whole entry partner): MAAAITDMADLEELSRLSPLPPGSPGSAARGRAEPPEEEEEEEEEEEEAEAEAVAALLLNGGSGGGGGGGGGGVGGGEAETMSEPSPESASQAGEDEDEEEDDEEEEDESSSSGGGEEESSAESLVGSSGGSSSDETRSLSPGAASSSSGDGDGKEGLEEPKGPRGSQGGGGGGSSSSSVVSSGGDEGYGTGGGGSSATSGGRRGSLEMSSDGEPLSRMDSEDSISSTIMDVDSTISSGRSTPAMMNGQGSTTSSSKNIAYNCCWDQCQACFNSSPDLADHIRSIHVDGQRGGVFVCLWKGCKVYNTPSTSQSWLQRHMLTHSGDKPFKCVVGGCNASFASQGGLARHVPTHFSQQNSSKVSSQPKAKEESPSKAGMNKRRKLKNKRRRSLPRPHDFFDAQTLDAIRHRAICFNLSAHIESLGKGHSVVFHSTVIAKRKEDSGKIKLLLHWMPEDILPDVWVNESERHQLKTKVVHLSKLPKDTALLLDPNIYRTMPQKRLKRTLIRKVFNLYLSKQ
experimental protocol: EED LC-MS assay (SAH production by PRC2)
Assay type: biochemical
experimental context: PRC2 LC-MS assay; read-out: (b) IC50 EED LC-MS Qualified
reported metric: pIC50
Answers are plain numbers, as −log10 of the molar value.

Solved entries (count: 4):
{"columns": ["compound", "tested on", "measured value"],
 "data": [
  ["COc1cccc(F)c1CNc1ccc(-c2cnc(F)cc2C)c2nncn12", "wild type PRC2 (wtPRC2) complex (Homo sapiens)", 7.09],
  ["COc1cccc(F)c1CNc1ccc(-c2cncnc2C)c2nncn12", "wild type PRC2 (wtPRC2) complex (Homo sapiens)", 7.83],
  ["COc1cccc(F)c1CNc1ccc(-c2c(C)nn(CC(C)O)c2C)c2nncn12 (centres unmarked)", "wild type PRC2 (wtPRC2) complex (Homo sapiens)", 7.60],
  ["COc1cccc(F)c1CNc1ccc(-c2ccc(C(=O)N(C)C)cc2F)c2nncn12", "wild type PRC2 (wtPRC2) complex (Homo sapiens)", 7.73]
]}

Proceed to the following item.
What measured pIC50 goes with `COc1cccc(F)c1CNc1ccc(-c2ccc(S(=O)(=O)C3CCNCC3)nc2)c2nncn12` ? 6.76

* * *

tested on: EED (1-441)-His protein (Homo sapiens)
Construct: 30 nM EED (1-441)-His protein
experimental protocol: EED-H3K27Me3 peptide competition binding assay by AlphaScreen
experimental context: EED-H3K27Me3 peptide competition, AlphaScreen; read-out: (a) IC50 EED Alphascreen binding Qualified
Binary call on IC50 with cut-off 10 nM: strictly below means condition met, and equality or higher means condition not met.

As a guide, the following entries are already answered.
{"columns": ["smiles code", "group label"],
 "data": [
  ["COc1cccc(F)c1CNc1ccc(-c2ccnc(CF)c2C)c2nncn12", "condition not met"],
  ["COc1cccc(F)c1CNc1ccc(-c2ccc(S(C)(=O)=O)cc2C)c2nncn12", "condition not met"],
  ["COc1ncc(-c2ccc(NCc3c(F)cccc3OC)n3cnnc23)c(C)n1", "condition met"],
  ["COc1cc(F)cc(F)c1CNc1ccc(-c2cccnc2C(F)F)c2nncn12", "condition not met"]
]}

Is the reported IC50 for `COc1ccc(-c2ccc(NCc3c(F)cccc3OC)n3cnnc23)c(C)n1` strictly below 10 nM? condition not met

* * *

tested on: EED (1-441)-His protein (Homo sapiens)
Construct: 30 nM EED (1-441)-His protein
experimental protocol: EED-H3K27Me3 peptide competition binding assay by AlphaScreen
experimental context: EED-H3K27Me3 peptide competition, AlphaScreen; read-out: (a) IC50 EED Alphascreen binding Qualified
Category | rule: reported IC50 within range, see 1 = under 20 nM, 2 = from 20 nM up to 50 nM, 3 = 50 nM and over

Using the reported IC50, which band applies to `COc1cccc(F)c1CNc1ccc(-c2cnccc2C(F)F)c2nncn12` ? 2
